experimental.conditions: in acetone, 293.15 K
measurement.kind: solubility (mole fraction)
I'd appreciate a reply containing only the number, no unit.

**Q:** Find the recorded solubility (mole fraction) belonging to `Nc1nc(N)nc(NC2CC2)n1` and report it.
**A:** 0.000617

###

experimental.conditions: in n-butanol, 318.15 K
measurement.kind: solubility (mole fraction)

**Q:** Fill blank: measured solubility (mole fraction) of the molecule `Nc1nc(N)nc(NC2CC2)n1` is ____.
**A:** 0.00262

###

experimental.conditions: in n-pentanol, 308.15 K
measurement.kind: solubility (mole fraction)
Reply: number alone, nothing else.

**Q:** Which solubility (mole fraction) value belongs to `Nc1nc(N)nc(NC2CC2)n1` ?
**A:** 0.00171

###

experimental.conditions: in acrylic acid, 303.15 K
measurement.kind: solubility (mole fraction)

**Q:** // returns reported solubility (mole fraction) for input `Nc1nc(N)nc(NC2CC2)n1`
**A:** 0.0492

###

experimental.conditions: in n-pentanol, 283.15 K
measurement.kind: solubility (mole fraction)
Output: the number by itself.

**Q:** Consider the compound `Nc1nc(N)nc(NC2CC2)n1` and give its measured solubility (mole fraction).
**A:** 0.000671

###

experimental.conditions: in n-butanol, 323.15 K
measurement.kind: solubility (mole fraction)

**Q:** Report solubility (mole fraction) for `Nc1nc(N)nc(NC2CC2)n1` please.
**A:** 0.0031

###

experimental.conditions: in n-hexanol, 298.15 K
measurement.kind: solubility (mole fraction)
I'd appreciate a reply containing only the number, no unit.

**Q:** Name the reported solubility (mole fraction) value associated with the compound `Nc1nc(N)nc(NC2CC2)n1`
**A:** 0.001

###

experimental.conditions: in acetic acid, 308.15 K
measurement.kind: solubility (mole fraction)
Lab note: jot down the number only; don't add units.

**Q:** Which measured solubility (mole fraction) value corresponds to `Nc1nc(N)nc(NC2CC2)n1` ?
**A:** 0.0227

###

experimental.conditions: in propionic acid, 293.15 K
measurement.kind: solubility (mole fraction)
# answer = number (no unit)

**Q:** Param item = `Nc1nc(N)nc(NC2CC2)n1` ; retrieve measured solubility (mole fraction).
**A:** 0.00847

###

experimental.conditions: in ethanol, 303.15 K
measurement.kind: solubility (mole fraction)
Give the figure only, with no unit attached.

**Q:** Bench note: what solubility (mole fraction) did `Nc1nc(N)nc(NC2CC2)n1` show?
**A:** 0.00172

###

experimental.conditions: in isopentanol, 283.15 K
measurement.kind: solubility (mole fraction)
Form: value (number only, do not type unit).

**Q:** Please give the measured solubility (mole fraction) for this molecule: `Nc1nc(N)nc(NC2CC2)n1`
**A:** 0.000469

###

experimental.conditions: in isobutanol, 318.15 K
measurement.kind: solubility (mole fraction)
Enter the number alone.

**Q:** What measured solubility (mole fraction) goes with `Nc1nc(N)nc(NC2CC2)n1` ?
**A:** 0.00131

###

experimental.conditions: in methanol, 298.15 K
measurement.kind: solubility (mole fraction)

**Q:** solubility (mole fraction) for `Nc1nc(N)nc(NC2CC2)n1` ?
**A:** 0.00279

###

experimental.conditions: in n-pentanol, 298.15 K
measurement.kind: solubility (mole fraction)
Enter the number alone.

**Q:** Returns the measured solubility (mole fraction) for the input compound. Input: `Nc1nc(N)nc(NC2CC2)n1`
**A:** 0.00119

###

experimental.conditions: in isopropanol, 313.15 K
measurement.kind: solubility (mole fraction)

**Q:** Report solubility (mole fraction) for `Nc1nc(N)nc(NC2CC2)n1` please.
**A:** 0.00125

###

experimental.conditions: in isopropanol, 323.15 K
measurement.kind: solubility (mole fraction)
Give the value as a plain number.

**Q:** Recorded solubility (mole fraction) for `Nc1nc(N)nc(NC2CC2)n1` , please?
**A:** 0.00172

###

experimental.conditions: in isopentanol, 313.15 K
measurement.kind: solubility (mole fraction)
Please respond with just the number, no unit label.

**Q:** What does the record list as solubility (mole fraction) for `Nc1nc(N)nc(NC2CC2)n1` ?
**A:** 0.00148

###

experimental.conditions: in acrylic acid, 293.15 K
measurement.kind: solubility (mole fraction)
Could you respond with only the numeric value?

**Q:** Quick check: solubility (mole fraction) of `Nc1nc(N)nc(NC2CC2)n1` ?
**A:** 0.0341

###

experimental.conditions: in n-pentanol, 313.15 K
measurement.kind: solubility (mole fraction)
Write no unit; give the number alone.

**Q:** // solubility (mole fraction) lookup, key: `Nc1nc(N)nc(NC2CC2)n1`
**A:** 0.00204

###

experimental.conditions: in isobutanol, 323.15 K
measurement.kind: solubility (mole fraction)

**Q:** Fill in: solubility (mole fraction) of `Nc1nc(N)nc(NC2CC2)n1` is ___
**A:** 0.0015

###

experimental.conditions: in propionic acid, 303.15 K
measurement.kind: solubility (mole fraction)

**Q:** For the molecule `Nc1nc(N)nc(NC2CC2)n1` , what solubility (mole fraction) is on record?
**A:** 0.0123

###

experimental.conditions: in propionic acid, 298.15 K
measurement.kind: solubility (mole fraction)
The answer should be a number; do not append a unit.

**Q:** Can you look up the measured solubility (mole fraction) of `Nc1nc(N)nc(NC2CC2)n1` for me?
**A:** 0.0101

###

experimental.conditions: in n-butanol, 298.15 K
measurement.kind: solubility (mole fraction)
The answer should be a number; do not append a unit.

**Q:** For the molecule `Nc1nc(N)nc(NC2CC2)n1` , what solubility (mole fraction) is on record?
**A:** 0.00126

###

experimental.conditions: in methanol, 308.15 K
measurement.kind: solubility (mole fraction)
Output: the number by itself.

**Q:** Looking for the measured solubility (mole fraction) of `Nc1nc(N)nc(NC2CC2)n1` , can you help?
**A:** 0.00344

###

experimental.conditions: in n-pentanol, 293.15 K
measurement.kind: solubility (mole fraction)

**Q:** solubility (mole fraction) for `Nc1nc(N)nc(NC2CC2)n1` ?
**A:** 0.000981

###

experimental.conditions: in isopentanol, 303.15 K
measurement.kind: solubility (mole fraction)
Answer with the value's number alone.

**Q:** Bench note: what solubility (mole fraction) did `Nc1nc(N)nc(NC2CC2)n1` show?
**A:** 0.00104

###

experimental.conditions: in ethanol, 293.15 K
measurement.kind: solubility (mole fraction)
Could you respond with only the numeric value?

**Q:** Look up solubility (mole fraction) for this molecule: `Nc1nc(N)nc(NC2CC2)n1`
**A:** 0.00127

###

experimental.conditions: in water, 298.15 K
measurement.kind: solubility (mole fraction)
Lab note: jot the number down without any unit.

**Q:** What measured solubility (mole fraction) goes with `Nc1nc(N)nc(NC2CC2)n1` ?
**A:** 0.00144

###

experimental.conditions: in n-heptanol, 298.15 K
measurement.kind: solubility (mole fraction)
Give only the figure.

**Q:** Would you mind telling me what solubility (mole fraction) value was observed for `Nc1nc(N)nc(NC2CC2)n1` ?
**A:** 0.000556

###

experimental.conditions: in methanol, 288.15 K
measurement.kind: solubility (mole fraction)

**Q:** Given the entry `Nc1nc(N)nc(NC2CC2)n1` , report its measured solubility (mole fraction).
**A:** 0.00224

###

experimental.conditions: in sec-butanol, 318.15 K
measurement.kind: solubility (mole fraction)
When you answer, write just the number.

**Q:** Value lookup for solubility (mole fraction); key = `Nc1nc(N)nc(NC2CC2)n1`
**A:** 0.0012

###

experimental.conditions: in n-heptanol, 283.15 K
measurement.kind: solubility (mole fraction)
The response must contain the number and no unit.

**Q:** I have this molecule here, `Nc1nc(N)nc(NC2CC2)n1` , and I need its recorded solubility (mole fraction).
**A:** 0.000235

###

experimental.conditions: in acetone, 288.15 K
measurement.kind: solubility (mole fraction)
Note: the reply should be a number with no unit written.

**Q:** Requested read-out: solubility (mole fraction). Entry: `Nc1nc(N)nc(NC2CC2)n1`
**A:** 0.000535

###

experimental.conditions: in n-pentanol, 318.15 K
measurement.kind: solubility (mole fraction)
Reply briefly: the number, and no unit.

**Q:** Can you share its solubility (mole fraction)? I mean this molecule: `Nc1nc(N)nc(NC2CC2)n1`
**A:** 0.00245

###

experimental.conditions: in isobutanol, 313.15 K
measurement.kind: solubility (mole fraction)

**Q:** Sample `Nc1nc(N)nc(NC2CC2)n1` — what was its solubility (mole fraction)?
**A:** 0.00115

###

experimental.conditions: in acetic acid, 303.15 K
measurement.kind: solubility (mole fraction)
Answer as a number with no unit attached.

**Q:** What value of solubility (mole fraction) has been reported for the following compound? `Nc1nc(N)nc(NC2CC2)n1`
**A:** 0.0187

###

experimental.conditions: in sec-butanol, 298.15 K
measurement.kind: solubility (mole fraction)
Please state the value as a number alone, without comment.

**Q:** Using the record for `Nc1nc(N)nc(NC2CC2)n1` , report its solubility (mole fraction).
**A:** 0.000581

Every entry's value here was drawn from BigSolDB 2.1.
